# Tested on: MOLT-4
# test.protocol: NCI tumour cell line growth inhibition, 48 h
Calls of active or inactive are those of the source. Cut-off read from the data, not from the text of the source: active = GI50 up to about 1.1 µM and inactive = higher.
Return exactly one item of active, inactive

Check the results log: what was the call for `Cn1c(=O)c2c(nc(Nc3ccc(Cl)cc3)n3c(=O)n(-c4ccccc4)c(=O)n23)n(C)c1=O` ?
inactive

Check the results log: what was the call for COc1cccc2c1C(=O)c1c(O)c3c(c(O)c1C2=O)CC(O)(C(O)CO)CC3OC1CC2C(OC3COCC(C#N)N32)C(C)O1 (stereo not drawn) ?
active

Check the results log: what was the call for COCCCNC(=O)C1C(=O)C(=O)N(CCCOC)C1=O (stereo not drawn) ?
inactive

----------
# System: SNB-19
# test.protocol: NCI tumour cell line growth inhibition, 48 h
The source made the active and inactive calls. Cut-off read from the data, not from the text of the source: active = GI50 up to about 1.1 µM and inactive = higher. Where a SMILES comes first, the peptide text is derived from it. Bridges are numbered along the chain shown (N, C = ends). The star is where a group is joined. Cbz = O=C(OCc1ccccc1)*
Return exactly one item of active, inactive

Check the results log: what was the call for `CCCCc1c(C(=O)OC(C)(C)C)cc(C#Cc2cc(C(=O)OC(C)(C)C)c(CCCC)c(C(=O)OC(C)(C)C)c2)cc1C(=O)OC(C)(C)C` ?
inactive

Check the results log: what was the call for [O-][S+](Nc1ccccc1)c1ccc(Cl)cc1 (centres undefined) ?
inactive

Check the results log: what was the call for `COc1c2nc(CCl)[nH]c(=O)c2c(OC)c2nc(CCl)[nH]c(=O)c12` ?
inactive

Check the results log: what was the call for `COc1ccc(/C=c2\sc3nnc(CCC(=O)Nc4cccc(C(F)(F)F)c4)n3c2=O)cc1` ?
inactive

Check the results log: what was the call for `COc1ccc(-c2csc3c2-n2cccc2C3=O)cc1` ?
active

Check the results log: what was the call for COCC12CCC(OC)C34C5CC6(O)C(OC)CC(OC(C)=O)(C5C6OC(=O)c5ccccc5)C(C(OC)C13)C4N(C)C2 (centres undefined) ?
inactive

Check the results log: what was the call for `O=C1c2ccccc2S(=O)(=O)c2c1cccc2[N+](=O)[O-]` ?
inactive

Check the results log: what was the call for `COc1cc(Cn2c3c(c4cc(O)ccc42)Cc2ccccc2C3=O)cc(OC)c1` ?
inactive

Check the results log: what was the call for COC(=O)C1CCCCNC(=O)CCC(NC(=O)OCc2ccccc2)C(=O)N1 (stereo not drawn) (Cbz-Glu-Lys-OMe; lactam 1-2; configuration not given here) ?
inactive

Check the results log: what was the call for COc1cc2c(cc1OC)C(Cl)C(c1ccc(Br)cc1)=C2Cl (centres undefined) ?
inactive

Check the results log: what was the call for CC(=O)NC(CCCCN(Cc1ccccc1)C(=O)N(C)N=O)C(=O)NCc1ccccc1 (centres undefined) ?
inactive

Check the results log: what was the call for N#CC(/C(=N/NC(=O)C(=O)NN)C(=O)NC12CC3CC(CC(C3)C1)C2)c1ccccc1 (centres undefined) ?
inactive

Check the results log: what was the call for NCCO/C=C/C(N)C(=O)O (centres undefined) [AMINOETHOXYVINYLGLYCINE] ?
inactive

Check the results log: what was the call for `Cc1ccc(Nc2nc(=O)[nH]c(=O)[nH]2)cc1N` ?
inactive

Check the results log: what was the call for Clc1ccc(C2=Nc3ccccc3SC(c3cccs3)C2)cc1 (centres undefined) ?
inactive

Check the results log: what was the call for `Cc1ccccc1NC(=O)/C(C#N)=N\Nc1[nH]cnc1C(N)=O` ?
inactive

Check the results log: what was the call for CC1CC(N2CCOCC2)=Nc2ccccc2N1Cc1ccccc1 (centres undefined) ?
inactive

Check the results log: what was the call for OC(CCN1CCN(CCOC(c2ccc(F)cc2)c2ccc(F)cc2)CC1)c1ccc(Br)cc1 (centres undefined) ?
inactive

Check the results log: what was the call for `CC(C)C(=O)NS(=O)(=O)c1ccccc1` ?
inactive

Check the results log: what was the call for `Cc1c(OCc2cccc3ccccc23)ccc2c(=O)cc(SCCN3CCOCC3)oc12` ?
inactive

Check the results log: what was the call for `O=C(O)/C=C\C(=O)Nc1ccccn1` ?
inactive

Check the results log: what was the call for Nc1nc(Cl)cc(NCC2(CO)CCC(O)C2)n1 (centres undefined) ?
inactive

Check the results log: what was the call for N=C(N)N/N=C(/CC1OC(=O)c2ccccc21)c1ccc2ccccc2c1 (centres undefined) ?
inactive

Check the results log: what was the call for `COc1nc(OC)c2c(=O)oc(-c3ccccc3)cc2n1` ?
inactive

Check the results log: what was the call for CCOS(C)(=O)=O [METHANESULFONIC ACID ETHYL ESTER] ?
inactive

Check the results log: what was the call for `O=C(O)CSCC(=O)Nc1ccc2cccc3c2c1CC3` ?
inactive

Check the results log: what was the call for `Cc1ccc([Se][Se]c2ccc(C)cc2)cc1` ?
inactive

Check the results log: what was the call for `CN(C)CCNC(=O)c1cccc2ccc(-c3ccncc3)nc12` ?
inactive

Check the results log: what was the call for Cc1cc2c(cc1Br)C1(C)CCC(C)C1(C)O2 (centres undefined) ?
inactive

Source: ChEMBL document CHEMBL1201862
